Tested on: BMPR2
SETTINGS: concentration: 1 μM, replicates: in singlicate; n = 1;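 note: KINOMEscan kinase panel screen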
Recorded %Inh, one value per entry.
Your answer should be a plain number; it is taken to be in %.

Previously resolved entries follow.
# COMPOUND, MEASURED
measured = [
    ("Cl.Cl.NCC(NC(=O)c1cc(-c2cccnc2)c(-c2ccnc3[nH]ccc23)s1)c1ccccc1 (stereo not shown) [GSK1323434]", 5),
    ("COc1cc(Nc2nccc(N3CCC(NC(=O)Nc4ccc5c(c4)OCO5)C3)n2)cc(OC)c1OC (stereo not shown) [GSK1379766]", 30),
    ("Cc1cc(-c2c(-c3ccc(F)cc3)ncn2CCCN2CCOCC2)nc(N)n1 [SB-222517]", 35),
]

--- query ---
**Query** Param readout= %Inh; system= BMPR2; entry= Cn1cc(-c2ccc3c(c2)CCN3C(=O)Cc2cc(F)cc(F)c2F)c2c(N)ncnc21 [GSK2634140] ; returns value.
**Result** 0

---

System: IRAK3
SETTINGS: concentration: 1 μM, replicates: in singlicate; n = 1
Label condition met when %Inh is strictly below 5%; otherwise label condition not met.

# count of solved cases: 5
# COMPOUND, QUALITATIVE_LABEL
records = [
    ("COc1cccc2c(-c3ccncc3)c(-c3ccc(F)cc3)nn12", "condition not met"),
    ("CN(C)CCNS(=O)(=O)c1ccc(-c2ccnc3[nH]ccc23)cc1", "condition not met"),
    ("COC(=O)Nc1nc2ccc(Oc3ccc(CC(=O)Nc4cc(C(F)(F)F)ccc4F)cc3)cc2[nH]1", "condition met"),
    ("Cc1ccc(O)cc1Nc1ccnc2cc(-c3ccc(CN4CCCCC4)o3)ccc12", "condition met"),
    ("CCn1cnc2c(NCc3ccccc3)ncnc21", "condition met"),
]

**Query** Problem: For the compound Nc1ncc(-c2cn[nH]c2)c2scc(-c3ccc4c(c3)CCN4C(=O)Cc3ccccc3)c12 , is %Inh under 5%?
**Result** condition not met

**Query** Problem: For the compound O=C(Nc1n[nH]c2nc(-c3ccccc3)ccc12)C1CC1 , is %Inh under 5%?
**Result** condition not met

**Query** Problem: For the compound Cc1ccc(NC(=O)c2cccc(N3CCCCC3)c2)cc1-c1ccc(C(=O)NCC2CC2)cc1 , is %Inh under 5%?
**Result** condition not met

---

System: HIPK4
SETTINGS: concentration: 1 μM, replicates: in singlicate; n = 1
# %Inh >= 4% gives True, anything below gives False

# MOLECULE, QUALITATIVE_LABEL
data = [
    ("COc1cccc(-c2nc(-c3ccccc3)[nH]c2-c2ccncc2)c1", "True"),
    ("NCCC(NC(=O)c1cc(Br)c(-c2ccnc3[nH]ccc23)s1)c1ccccc1.O=C(O)C(F)(F)F.O=C(O)C(F)(F)F (centres unmarked)", "True"),
]

**Query** Is %Inh for COc1ccc(C)c(Nc2ccnc(Nc3ccc(-c4cnc[nH]4)cc3)n2)c1.Cl at or above 4%?
**Result** True

**Query** Is %Inh for CN(c1ccc(F)c(NC(=O)c2cccc(OC(C)(C)C#N)c2Cl)c1)c1ccc2nc(NC(=O)C3CC3)sc2n1 at or above 4%?
**Result** False

**Query** Is %Inh for N#Cc1cnc2cc(-c3cnc(CNCCN4CCOCC4)s3)ccc2c1Nc1ccc(Oc2ccccc2)cc1 at or above 4%?
**Result** False

**Query** Is %Inh for N#CC1(c2cccc(C(=O)Nc3cccc(Oc4ccc5nc(NC(=O)C6CC6)sc5n4)c3)c2)CC1 at or above 4%?
**Result** True

**Query** Is %Inh for COc1cc(Nc2nccc(N3CCC(NC(=O)Nc4ccc5c(c4)OCO5)C3)n2)cc(OC)c1OC (centres unmarked) at or above 4%?
**Result** False

**Query** Is %Inh for CCOc1nccc(-c2c(-c3ccc(F)cc3)ncn2C2CCNCC2)n1 at or above 4%?
**Result** True

**Query** Is %Inh for CN(c1ccc(NC(=O)N2CCN(CCCN3CCOCC3)CC2)cc1)c1ccnc(Nc2ccc(CS(C)(=O)=O)cc2)n1.Cl at or above 4%?
**Result** True

**Query** Is %Inh for COc1cc(Nc2nccc(N3CCC(NS(=O)(=O)c4ccc(NC(C)=O)cc4)CC3)n2)cc(OC)c1OC at or above 4%?
**Result** False

**Query** Is %Inh for COc1cccc(CC(=O)N2CCc3cc(-c4cn(C)c5ncnc(N)c45)ccc32)c1 at or above 4%?
**Result** True

**Query** Is %Inh for COc1ccc(C2=C(Nc3cccc(O)c3)C(=O)NC2=O)cc1 at or above 4%?
**Result** True

**Query** Is %Inh for CCNc1nccc(-c2c(-c3ccc(F)cc3)ncn2C2CCN(C)CC2)n1 at or above 4%?
**Result** False

**Query** Is %Inh for COc1cc(Nc2ccnc3cc(-c4ccncc4)ccc23)cc(OC)c1OC.Cl at or above 4%?
**Result** False

**Query** Is %Inh for c1ccc(Oc2ccc(Nc3ccnc4cc(-c5ccc(CN6CCCCC6)o5)ccc34)cc2)nc1 at or above 4%?
**Result** False

**Query** Is %Inh for O=C(Nc1n[nH]c2nc(-c3cccc(O)c3)ccc12)C1CC1 at or above 4%?
**Result** True

---

Tested on: CAMK1
SETTINGS: concentration: 1 μM, replicates: in singlicate; n = 1
# %Inh >= 20% gives 1 (yes), anything below gives 0 (no)

# count of solved cases: 7
# COMPOUND, QUALITATIVE_LABEL
measured = [
    ("O=C(Nc1n[nH]c2nc(-c3cccc(O)c3)ccc12)C1CC1", "0 (no)"),
    ("CS(=O)(=O)c1cccc(CNc2nc(Nc3ccc4c(c3)CCC(=O)N4)ncc2C(F)(F)F)c1", "0 (no)"),
    ("Cc1ccccc1CC(=O)N1CCc2cc(-c3cn(C)c4ncnc(N)c34)ccc21", "0 (no)"),
    ("Cc1ccc(O)cc1Nc1ccnc2cc(-c3ccc(CN4CCCCC4)o3)ccc12", "0 (no)"),
    ("CC(C)NCC(Cc1ccccc1)NC(=O)c1cc(Br)c(-c2ccnc3[nH]ccc23)s1.Cl.Cl (stereo not drawn)", "1 (yes)"),
    ("CNc1nccc(-c2ccc3c(N)n[nH]c3c2)n1", "1 (yes)"),
    ("Cc1cc(-c2ccnc(Nc3cccc(C#N)c3)n2)cc(C)c1O", "1 (yes)"),
]

**Query** Is %Inh for Cc1ccc(NC(=O)c2ccc(Cl)c(Cl)c2)cc1-c1ccc(C(=O)Nc2ccncc2)cc1 at or above 20%?
**Result** 1 (yes)

---

Test system: MEK5
Construct: gene MAP2K5
SETTINGS: concentration: 1 μM, replicates: in singlicate; n = 1
Label Yes when %Inh is strictly below 60%; otherwise label No.

# count of solved cases: 4
# COMPOUND, QUALITATIVE_LABEL
data = [
    ("CCn1cnc2c(NCc3ccccc3)ncnc21 [SKF-96418]", "Yes"),
    ("CN(c1ccc(NC(=O)Nc2cccc(Cl)c2)cc1)c1ccnc(N)n1.Cl [GW830707]", "Yes"),
    ("COC(=O)Nc1nc2cc(Oc3ccc(NC(=O)Nc4cccc(SC)c4)cc3)ccc2[nH]1.Cl [GW697999]", "Yes"),
    ("Cc1ccc(O)cc1Nc1ccnc2ccc(C(C)(C)C)cc12 [GW856805]", "No"),
]

Next up:
**Query** Problem: For the compound N#CC1(c2cccc(C(=O)Nc3cccc(Oc4ccc5nc(NC(=O)C6CC6)sc5n4)c3)c2)CC1 , is %Inh under 60%?
**Result** No

---

Recorded %Inh, one value per entry.
System: NLK
SETTINGS: concentration: 1 μM, replicates: in singlicate; n = 1
Please state the value followed by its unit.

Previously resolved entries follow.
# COMPOUND, %Inh
measured = [
    ("Fc1cc(Cl)ccc1Nc1ccnc2cc(-c3ccc(CN4CCSCC4)o3)ccc12 [GW560106]", "30%"),
    ("COc1ccc(C2=C(Nc3cccc(O)c3)C(=O)NC2=O)cc1 [SB-390766]", "35%"),
]

**Query** Suppose we examine the compound O=C(O)C(F)(F)F.O=c1[nH]ccc2nc(N[C@@H]3CCNC3)nc(Nc3cc(Cl)cc(Cl)c3)c12 [GSK2188764] ; what %Inh value has been reported?
**Result** 19%

**Query** Suppose we examine the compound Cl.N#CCc1ccc(Nc2nccc(Nc3ccc(Oc4ccccc4)cc3)n2)cc1 [GW639905] ; what %Inh value has been reported?
**Result** 0%

**Query** Suppose we examine the compound NCCC(NC(=O)c1cc(Br)c(-c2ccnc3[nH]ccc23)s1)c1ccccc1.O=C(O)C(F)(F)F.O=C(O)C(F)(F)F (centres unmarked) [GSK1307810] ; what %Inh value has been reported?
**Result** 3%
